For each of the compounds below, state its z-score.
# METHOD: inhibitors of hydroxyurea-induced Chk1 phosphorylation, primary screen, imaging, HeLa, phospho-Chk1 nuclear intensity (AID 1187); note: test concentration not given here
# CONDITION_DETAILS: hydroxyurea-induced phospho-Chk1 immunofluorescence imaging, higher = more signal
When you answer, write just the number.

[Q] Answer with reported z-score of COCCOC(=O)N1C(=O)[C@@]2(c3cc(C#CCC(C(=O)OC)C(=O)OC)ccc31)[C@H](c1ccccc1OCCO)N1[C@H](c3ccccc3)[C@H](c3ccccc3)OC(=O)[C@H]1[C@@H]2C(=O)N1CCN(c2ncccn2)CC1
[A] -0.236

[Q] Answer with reported z-score of O=C1C[C@]2(c3ccc([N+](=O)[O-])cc3)C(=O)N(CC(F)(F)F)c3cc(CO)ccc3[C@H]2N1C1CCCCC1
[A] -0.125

[Q] Answer with reported z-score of C=C(CC1([C@@H](NP(=O)(c2ccccc2)c2ccccc2)[C@H]2C[C@@H]2CCCC)CC1)c1ccccc1
[A] 1.12

* * *

# Tested on: Human papillomavirus type 1a E7 protein (residues 1-88)
# METHOD: HPV1a E7 small-molecule binders, primary screen, biochemical, small-molecule microarray, residues 1-88, 635 nm (AID 1129)
# CONDITION_DETAILS: small-molecule microarray binding, fluorescence 635 nm; higher = more signal
Assign Met whenever composite z-score does not fall below 1; assign Not met whenever it does.

[Q] In plain terms: is recorded composite z-score at least 1 for C=C(C)[C@@H]1CC=C(C(O)C2C=CC3C(=O)N(c4ccccc4)C(=O)C3N2Nc2ccccc2)CC1 (some centres undefined) ?
[A] Met

[Q] In plain terms: is recorded composite z-score at least 1 for COc1ccc(/C=C/C=O)cc1 ?
[A] Not met

[Q] In plain terms: is recorded composite z-score at least 1 for COC(=O)[C@@]1(Cc2ccc(OC)cc2)[C@@H]2C(=CC(=O)[C@H]2CC(=O)C(=O)N2CCCC2)CN1C(=O)c1ccccc1 ?
[A] Not met

[Q] In plain terms: is recorded composite z-score at least 1 for C=C(C)[C@@H]1CC=C(C(O)C2C=CC3C(=O)N(C)C(=O)C3N2Nc2ccccc2)CC1 (some centres undefined) ?
[A] Met

[Q] In plain terms: is recorded composite z-score at least 1 for C=C(CCCC)/C(=C/C[C@H](OC(=O)c1ccncc1)c1ccccc1OCCO)c1cnc2ccccc2c1 ?
[A] Met

[Q] In plain terms: is recorded composite z-score at least 1 for Cc1ccc([C@@H]2C[C@@H](Sc3ccccc3)[C@H](C(=O)O)CN2S(=O)(=O)c2ccc(C)cc2)cc1 ?
[A] Met

[Q] In plain terms: is recorded composite z-score at least 1 for O=C1NC(=O)C2C1C=CC(C(O)c1cccs1)N2Nc1ccc(Cl)cc1Cl (centres undefined) ?
[A] Not met

[Q] In plain terms: is recorded composite z-score at least 1 for CCCCC(CC)C(O)C1C=CC2C(=O)N(Cc3ccccc3)C(=O)C2N1n1cnnc1 (centres undefined) ?
[A] Not met

[Q] In plain terms: is recorded composite z-score at least 1 for CC1CC/C=C\[C@H]2OC34C=CCN(C(C)(C)C)C(=O)[C@H]3N(C(C)CO)C(=O)[C@@H]4C2C(=O)O1 (some centres undefined) ?
[A] Not met

[Q] In plain terms: is recorded composite z-score at least 1 for O=C(CS)NCCCCCCNC(=O)[C@@H]1C[C@@H]2C(=O)NCC(=O)N2[C@@H]1c1cccc(OCCO)c1 ?
[A] Met

[Q] In plain terms: is recorded composite z-score at least 1 for CCCCCCc1nc(-c2ccc(OC)nc2)cc2c1[Si](C(C)C)(C(C)C)O[C@H]2c1ccccc1 ?
[A] Not met

[Q] In plain terms: is recorded composite z-score at least 1 for C#C[C@H](O[Si](C#Cc1ccc(Oc2ccccc2)cc1)(C(C)C)C(C)C)c1ccccc1 ?
[A] Not met

[Q] In plain terms: is recorded composite z-score at least 1 for O=C(N1CCCCC1)[C@]1(Cc2ccccc2)N=C(c2ccc(OCCCO)cc2)O[C@@H]1c1ccccc1 ?
[A] Met

[Q] In plain terms: is recorded composite z-score at least 1 for COCCOC(=O)N1C(=O)[C@@]2(c3cc(C#CCNC(N)=O)ccc31)[C@H](C(=O)Nc1nc3ccccc3s1)[C@H]1C(=O)O[C@H](c3ccccc3)[C@H](c3ccccc3)N1[C@@H]2c1ccc(OCCO)cc1 ?
[A] Not met

[Q] In plain terms: is recorded composite z-score at least 1 for C=C[C@@H](COC(=O)OC(C)(C)C)N(Cc1ccc(OC)cc1)S(=O)(=O)c1ccc(Br)cc1 ?
[A] Met

[Q] In plain terms: is recorded composite z-score at least 1 for C=CCOC(=O)[C@H]1[C@@H]2C(=O)O[C@@H](c3ccccc3)[C@@H](c3ccccc3)N2[C@@H](c2ccc(OCCOC(=O)[C@@H]3C[C@@H]4C(=O)N[C@@H](CCCCNC(C)=O)C(=O)N4[C@@H]3c3ccc(O)cc3)cc2)[C@]12C(=O)Nc1ccccc12 ?
[A] Met

[Q] In plain terms: is recorded composite z-score at least 1 for Cc1nc2cc(Br)ccc2c(=O)o1 ?
[A] Not met

[Q] In plain terms: is recorded composite z-score at least 1 for Cc1ccccc1C(O)C1C=CC2C(=O)N(c3ccccc3)C(=O)C2N1Nc1ccc(C(C)C)cc1 (centres undefined) ?
[A] Met

[Q] In plain terms: is recorded composite z-score at least 1 for COc1ccc(CCNC(=O)[C@@]2(Sc3ccc(C)cc3)CC(=O)N(C3Cc4ccccc4C3)[C@@H]2c2ccc(CO)cc2I)cc1 ?
[A] Not met
